# pIC50 annotations
# test_system: recombinant autotaxin (Homo sapiens)
# experiment: Autotaxin test (enzyme test), Amplex Red fluorescence
# applied_conditions: substrate LPC 75 μM, Amplex Red detection, read-out: IC50 (autotaxin inhibition, enzyme test)
pIC50: −log10 of the molar value.

- smiles_structure: "CCCCc1ccc(NC(=O)Nc2[nH]c(Cc3ccc(C(=O)N(C)c4ccccc4)o3)nc2C(N)=O)cc1"
  pIC50: "5.00 to 6.00"
- smiles_structure: "NC(=O)c1nc(Cc2ccc(OCC(=O)O)cc2)[nH]c1NC(=O)Nc1ccc(C(F)(F)F)cc1"
  pIC50: "5.00 to 6.00"
- smiles_structure: "Cc1ccc(NC(=O)Nc2[nH]c(-c3ccc(CC(=O)O)cc3)nc2C(N)=O)c(C)c1"
  pIC50: "< 5.00"
- smiles_structure: "CCCCc1ccc(NC(=O)Nc2[nH]c(-c3ccc(OCC(=O)O)cc3)nc2C(N)=O)cc1"
  pIC50: "< 5.00"
- smiles_structure: "Cc1ccc(NC(=O)Nc2[nH]c(COc3ccc(CC(=O)O)cc3)nc2C(N)=O)cc1"
  pIC50: "< 5.00"
- smiles_structure: "CCCCc1ccc(NC(=O)Nc2[nH]c(Cc3ccc(C(=O)N(C)CCC)o3)nc2C(N)=O)cc1"
  pIC50: "< 5.00"
- smiles_structure: "Cc1ccc(NC(=O)Nc2[nH]c(Cc3ccc(C(=O)O)o3)nc2C(N)=O)c(C)c1"
  pIC50: "< 5.00"
- smiles_structure: "NC(=O)c1nc(CCC(=O)Nc2ccc3[nH]nnc3c2)[nH]c1NC(=O)Nc1ccc(Cl)cc1"
  pIC50: "< 5.00"
- smiles_structure: "CCCCc1ccc(NC(=O)Nc2[nH]c(Cc3ccc(C(=O)NC4CCCCC4)o3)nc2C(N)=O)cc1"
  pIC50: "< 5.00"
- smiles_structure: "Cc1ccc(NC(=O)Nc2[nH]c(COc3ccc(CC(=O)O)cc3)nc2C(N)=O)c(C)c1"
  pIC50: "5.00 to 6.00"
- smiles_structure: "NC(=O)c1nc(-c2ccc(OCC(=O)O)cc2)[nH]c1NC(=O)Nc1ccc(C(F)(F)F)cc1"
  pIC50: "5.00 to 6.00"
- smiles_structure: "CC(C)c1ccc(NC(=O)Nc2[nH]c(-c3ccc(OCC(=O)O)cc3)nc2C(N)=O)cc1"
  pIC50: "5.00 to 6.00"
- smiles_structure: "CCCCc1ccc(NC(=O)Nc2[nH]c(Cc3ccc(C(=O)N4CCN(c5ccccc5)CC4)o3)nc2C(N)=O)cc1"
  pIC50: "< 5.00"
- smiles_structure: "NC(=O)c1nc(Cc2ccc(C(=O)O)cc2)[nH]c1NC(=O)Nc1cc(C(F)(F)F)ccc1F"
  pIC50: "< 5.00"
- smiles_structure: "NC(=O)c1nc(Cc2ccc(N)cc2)[nH]c1NC(=O)Nc1ccc(C(F)(F)F)cc1"
  pIC50: "5.00 to 6.00"

====

The compounds listed here are annotated with their IC50.
# test_system: recombinant autotaxin (Homo sapiens)
# experiment: Autotaxin test (enzyme test), Amplex Red fluorescence
# applied_conditions: substrate LPC 75 μM, Amplex Red detection, read-out: IC50 (autotaxin inhibition, enzyme test)

- smiles_structure: "COC(=O)c1ccc(Cc2nc(C(N)=O)c(NC(=O)Nc3ccc(OC(F)(F)F)cc3)[nH]2)cc1"
  test_system: "recombinant autotaxin (Homo sapiens)"
  IC50: "> 10 µM"
- smiles_structure: "CCc1ccc(NC(=O)Nc2[nH]c(Cc3ccc(C(=O)O)o3)nc2C(N)=O)cc1"
  test_system: "recombinant autotaxin (Homo sapiens)"
  IC50: "1 to 10 µM"
- smiles_structure: "Cc1cc(C)cc(NC(=O)Nc2[nH]c(-c3ccc(CC(=O)O)cc3)nc2C(N)=O)c1"
  test_system: "recombinant autotaxin (Homo sapiens)"
  IC50: "> 10 µM"
- smiles_structure: "CCCCCc1ccc(NC(=O)Nc2[nH]c(Cc3ccc(OCC(=O)O)cc3)nc2C(N)=O)cc1"
  test_system: "recombinant autotaxin (Homo sapiens)"
  IC50: "1 to 10 µM"
- smiles_structure: "NC(=O)c1nc(Cc2ccc(C(=O)O)s2)[nH]c1NC(=O)Nc1ccc(C(F)(F)F)cc1"
  test_system: "recombinant autotaxin (Homo sapiens)"
  IC50: "1 to 10 µM"
- smiles_structure: "Cc1ccc(NC(=O)Nc2[nH]c(Cc3ccc(C(=O)O)s3)nc2C(N)=O)c(C)c1"
  test_system: "recombinant autotaxin (Homo sapiens)"
  IC50: "1 to 10 µM"
- smiles_structure: "NC(=O)c1nc(CCC(=O)Nc2ccc3[nH]c(=O)oc3c2)[nH]c1NC(=O)Nc1ccc(Cl)cc1"
  test_system: "recombinant autotaxin (Homo sapiens)"
  IC50: "> 10 µM"
- smiles_structure: "NC(=O)c1nc(-c2ccc(C(=O)O)cc2)[nH]c1NC(=O)Nc1ccc(C(F)(F)F)cc1"
  test_system: "recombinant autotaxin (Homo sapiens)"
  IC50: "> 10 µM"
- smiles_structure: "CCCCc1ccc(NC(=O)Nc2[nH]c(Cc3ccc(C(=O)N4CCOCC4)o3)nc2C(N)=O)cc1"
  test_system: "recombinant autotaxin (Homo sapiens)"
  IC50: "> 10 µM"
- smiles_structure: "CCc1cccc(C)c1NC(=O)Nc1[nH]c(Cc2ccc(C(=O)O)o2)nc1C(N)=O"
  test_system: "recombinant autotaxin (Homo sapiens)"
  IC50: "> 10 µM"
- smiles_structure: "CCCCOc1ccc(NC(=O)Nc2[nH]c(Cc3ccc(O)cc3)nc2C(N)=O)cc1"
  test_system: "recombinant autotaxin (Homo sapiens)"
  IC50: "> 10 µM"
- smiles_structure: "Cc1cc(NC(=O)Nc2[nH]c(Cc3ccc(C(=O)O)s3)nc2C(N)=O)ccc1F"
  test_system: "recombinant autotaxin (Homo sapiens)"
  IC50: "> 10 µM"
- smiles_structure: "CCCCc1ccc(NC(=O)Nc2[nH]c(Cc3ccc(C(=O)O)cc3)nc2C(N)=O)cc1"
  test_system: "recombinant autotaxin (Homo sapiens)"
  IC50: "> 10 µM"
- smiles_structure: "CCCCc1ccc(NC(=O)Nc2[nH]c(Cc3ccc(C(=O)N4CCC(C)CC4)o3)nc2C(N)=O)cc1"
  test_system: "recombinant autotaxin (Homo sapiens)"
  IC50: "> 10 µM"
- smiles_structure: "CC(C)c1ccc(NC(=O)Nc2[nH]c(Cc3ccc(OCC(=O)O)cc3)nc2C(N)=O)cc1"
  test_system: "recombinant autotaxin (Homo sapiens)"
  IC50: "1 to 10 µM"
- smiles_structure: "NC(=O)c1nc(Cc2ccc(OCC(=O)O)cc2)[nH]c1NC(=O)Nc1cccc(C(F)(F)F)c1"
  test_system: "recombinant autotaxin (Homo sapiens)"
  IC50: "> 10 µM"

====

// pIC50 lookup, one value per entry
# test_system: recombinant autotaxin (Homo sapiens, UniProt Q13822)
# Construct: made in house; host or cells: Hi5 insect cells (baculovirus)
# experiment: Autotaxin test (enzyme test), Amplex Red fluorescence
# Format: biochemical
# applied_conditions: substrate LPC 75 μM, Amplex Red detection, read-out: IC50 (autotaxin inhibition, enzyme test)
pIC50: −log10 of the molar value.

- molecule: "NC(=O)c1nc(-c2ccc(OCC(=O)O)cc2)[nH]c1NC(=O)Nc1ccc(F)cc1 [Compound A46]"
  pIC50: "< 5.00"
- molecule: "Cc1cc(C)c(NC(=O)Nc2[nH]c(Cc3ccc(C(=O)O)o3)nc2C(N)=O)c(C)c1 [Compound A31]"
  pIC50: "5.00 to 6.00"
- molecule: "NC(=O)c1nc(Cc2ccc(OCC(=O)O)cc2)[nH]c1NC(=O)Nc1ccc(F)cc1 [Compound A36]"
  pIC50: "< 5.00"
- molecule: "CCCCc1ccc(NC(=O)Nc2[nH]c(Cc3ccc(OCC(=O)O)cc3)nc2C(N)=O)cc1 [Compound A39]"
  pIC50: "5.00 to 6.00"
- molecule: "NC(=O)c1nc(-c2ccc(CC(=O)O)cc2)[nH]c1NC(=O)Nc1ccc(C(F)(F)F)cc1 [Compound A20]"
  pIC50: "< 5.00"
- molecule: "CCCCCCNC(=O)Nc1[nH]c(Cc2ccc(C(=O)O)cc2)nc1C(N)=O [Compound A4]"
  pIC50: "< 5.00"
- molecule: "CC(C)(CCc1nc(C(N)=O)c(NC(=O)Nc2ccc(Cl)cc2)[nH]1)C(=O)O [Compound B75]"
  pIC50: "< 5.00"
- molecule: "NC(=O)c1nc(Cc2ccc(C(=O)O)cc2)[nH]c1NC(=O)Nc1ccc(OC(F)(F)F)cc1 [Compound A93]"
  pIC50: "5.00 to 6.00"
- molecule: "NC(=O)c1nc(CCCCN2C(=O)c3ccccc3C2=O)[nH]c1NC(=O)Nc1ccc(Cl)cc1 [Compound B77]"
  pIC50: "< 5.00"
- molecule: "CCCCc1ccc(NC(=O)Nc2[nH]c(Cc3ccc(C(=O)N4CCC(CCO)CC4)o3)nc2C(N)=O)cc1 [Compound A91]"
  pIC50: "5.00 to 6.00"
- molecule: "NC(=O)c1nc(COc2ccc(CC(=O)O)cc2)[nH]c1NC(=O)Nc1ccc(F)c(C(F)(F)F)c1 [Compound A64]"
  pIC50: "< 5.00"
- molecule: "Cc1cc(Cl)ccc1NC(=O)Nc1[nH]c(COc2ccc(CC(=O)O)cc2)nc1C(N)=O [Compound A62]"
  pIC50: "5.00 to 6.00"
- molecule: "NC(=O)c1nc(Cc2ccc(C(=O)O)o2)[nH]c1NC(=O)Nc1ccc(Cl)c(C(F)(F)F)c1 [Compound A29]"
  pIC50: "< 5.00"
- molecule: "NC(=O)c1nc(-c2ccc(CC(=O)O)cc2)[nH]c1NC(=O)Nc1ccc(Cl)cc1 [Compound A22]"
  pIC50: "< 5.00"
- molecule: "NC(=O)c1nc(Cc2ccc(C(=O)O)cc2)[nH]c1NC(=O)Nc1cccs1 [Compound A102]"
  pIC50: "5.00 to 6.00"

Cited source for all entries: patent US20100249132A1
